ASSAY_PROCEDURE: RPMI8226 myeloma cell viability, profiling panel, resazurin fluorescence, basal, 24 h, PK04 Diversity Set (AID 1180);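 further: RPMI8826 multiple myeloma cell line at 5000 cells per well; test concentration not given here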
MEASUREMENT_PARAMETERS: higher = more signal
OBSERVED_PROPERTY: z-score
Give the figure by itself; no unit, no explanation.

Example results:
MOLECULE: C=CCN1Cc2ccccc2[C@H]2OC(c3ccc(OCCCO)cc3)=N[C@@]2(CC=C)C1=O
z-score: -1.8
--
MOLECULE: C=CC[C@]1(C(=O)NCCN2CCOCC2)N=C(c2ccc(OCCCO)cc2)O[C@H]1c1ccccc1CN=[N+]=[N-]
z-score: 0.485
--
MOLECULE: COc1cc(OC)c(C(O)C2C=CC3C(=O)N(c4ccccc4)C(=O)C3N2Nc2ccccc2)cc1Br (centres undefined)
z-score: -1.52

The record that follows has no z-score shown yet.
# input molecule: CCCC[C@@H](O)C1=C(COc2ccccc2)C[C@H]2C(=O)N(C)C(=O)[C@H]2[C@H]1CO ; wanted: its z-score
0.296

====

ASSAY_PROCEDURE: basal S. cerevisiae growth modulation, no modifier, primary screen, OD600, strain BY4716, 24 h, basal condition (AID 1173)
MEASUREMENT_PARAMETERS: OD600, 24 h, higher = more signal, called active from +8 up or from −8 down
Calls of active or inactive are those of the source.
OBSERVED_PROPERTY: z-score

Example results:
COMPOUND: O=C(NCc1ccccc1)[C@@H]1c2ccccc2C(=O)N(Cc2ccccc2C(F)(F)F)[C@H]1c1ccc(CO)cc1
OBSERVED_PROPERTY: z-score
MEAS_VALUE: 0.036 (inactive)

COMPOUND: NC(=O)NCC#Cc1ccc2c(c1)[C@]1(C(=O)N2)[C@H](C(=O)O)[C@H]2C(=O)O[C@H](c3ccccc3)[C@H](c3ccccc3)N2[C@@H]1c1ccc(OCCO)cc1
OBSERVED_PROPERTY: z-score
MEAS_VALUE: 0.0086 (inactive)

COMPOUND: C=C(COC)C(=O)CC[C@@H](OC(=O)c1cccnc1)c1ccc(OCCO)cc1
OBSERVED_PROPERTY: z-score
MEAS_VALUE: -16 (active)

The record that follows has no z-score shown yet.
# input compound: C=CCC(OC(C)=O)[C@@H]1[C@@H](N(Cc2ccc(-c3cccc(C(F)(F)F)c3)o2)C(=O)c2ccc(C)cc2)c2cc(OCCCO)ccc2N1C(=O)c1ccc2ccccc2c1 (some centres not stated) ; wanted: its z-score
0.656 (inactive)

====

ASSAY_PROCEDURE: inhibitors of hydroxyurea-induced Chk1 phosphorylation, primary screen, imaging, HeLa, phospho-Chk1 nuclear intensity (AID 1187); further: test concentration not given here
MEASUREMENT_PARAMETERS: hydroxyurea-induced phospho-Chk1 immunofluorescence imaging, higher = more signal
Measured z-score, listed per entry.
Give the figure by itself; no unit, no explanation.

Example results:
SMILES_INPUT: CC(C)N1C(=O)C[C@@](C(=O)NCCCN(C)C)(c2ccc([N+](=O)[O-])cc2)[C@H]1c1ccc(CO)cc1
OBSERVED_PROPERTY: z-score
MEAS_VALUE: 0.273
--
SMILES_INPUT: COCCOC(=O)N1C(=O)[C@@]2(c3cc(C#CCCO)ccc31)[C@H](c1ccccc1OCCO)N1[C@H](c3ccccc3)[C@H](c3ccccc3)OC(=O)[C@H]1[C@@H]2C(=O)Nc1nc2ccccc2s1
OBSERVED_PROPERTY: z-score
MEAS_VALUE: 0.0927
--
SMILES_INPUT: COc1ccc(CCN2C(=O)[C@@]3(Cc4ccccc42)c2ccccc2C(=O)N(Cc2ccccc2OC)[C@H]3c2ccc(CO)cc2)cc1
OBSERVED_PROPERTY: z-score
MEAS_VALUE: 0.0689

# input molecule: C=CCOC(=O)[C@H]1[C@@H]2C(=O)O[C@@H](c3ccccc3)[C@@H](c3ccccc3)N2[C@@H](c2ccc(OCCOC(=O)[C@@H]3C[C@@H]4C(=O)N[C@@H](CCCCN(C)C)C(=O)N4[C@@H]3c3ccc(O)cc3)cc2)[C@]12C(=O)Nc1ccccc12 ; wanted: its z-score
-0.475

# repeat for CCOC(=O)C[C@H]1[C@H](OC(=O)c2ccccc2-c2ccccc2)[C@@H](NC(=O)c2ccc(-c3ccccc3)cc2)c2cc(OCCCO)ccc2N1C(=O)c1ccc2ccccc2n1
-0.0265

# repeat for COC(=O)[C@@]1(Cc2ccc(F)cc2)[C@H]2c3cc(C(=O)N(C)C)n(Cc4cc(F)cc5c4OCOC5)c3C[C@H]2CN1C(=O)c1ccccc1
-0.669
